All figures here come from patent US6949542B2.

measurement type: melting point (°C)

| molecule | unit annotation | melting point |
| --- | --- | --- |
| Cc1cc(-c2cccc(C3=Nc4cc(N(C)CC(C)C)c(C(F)(F)F)cc4NC(=O)C3)c2)cc(C)n1 [Example 408] | °C | 215 |
| CCOc1cc2c(cc1Cl)NC(=O)CC(c1cccc(-c3ccnc(C)c3)c1)=N2 [Example 182] | °C | 185 |
| COc1ccc(-c2cccc(C3=Nc4cc(N(C)C)c(C(F)(F)F)cc4NC(=O)C3)c2)nn1 [Example 40] | °C | 224 |
| Cc1cc2c(cc1Cl)N=C(c1cccc(-c3ccncc3)c1)CC(=O)N2 [Example 66] | °C | 236 |

---

measurement type: melting point (°C)

# example entries with known answers
| compound | numeric value |
| --- | --- |
| Cc1cc(-c2cccc(C3=Nc4cc(Cl)c(Cl)cc4NC(=O)C3)c2)c(C)cn1 [Example 137] | 208 |
| O=C1CC(c2cccc(-c3cncnc3)c2)=Nc2cc(C(F)(F)F)c(Cl)cc2N1 [Example 111] | 217 |
| Cc1ccc(-c2cccc(C3=Nc4ccc(-c5ccccc5F)cc4NC(=O)C3)c2)nn1 [Example 16] | 225 |
| O=C1CC(c2cccc(-c3ccccn3)c2)=Nc2cc(C(F)(F)F)c(Cl)cc2N1 [Example 107] | 208 |
| CCc1cnc(C)cc1-c1cccc(C2=Nc3cc(OCC(F)(F)F)c(C(F)(F)F)cc3NC(=O)C2)c1 [Example 151] | 169 |

(1) Cc1cc2c(cc1C(F)(F)F)N=C(c1cccc(-c3cncnc3)c1)CC(=O)N2 [Example 106]
(2) COCc1cc(-c2cccc(C3=Nc4cc(N(C)CC(C)C)c(C(F)(F)F)cc4NC(=O)C3)c2)ccn1 [Example 398]
Prompt: Lab note: record which item had the higher melting point, 1 or 2 . Pick one and reply with its label.
Completion: 1
(1: 238 °C, 2: 141 °C)

---

measurement type: melting point (°C)

| compound | unit annotation | melting point |
| --- | --- | --- |
| CCc1cnc(C)cc1-c1cccc(C2=Nc3cc(C)c(Cl)cc3NC(=O)C2)c1 [Example 147] | °C | 195 |
| CC(C)c1cc(-c2cccc(C3=Nc4ccc(C(F)(F)F)cc4NC(=O)C3)c2)ccn1 [Example 272] | °C | 168 |
| O=C1CC(c2cccc(-c3ccnc(CO)c3)c2)=Nc2cc(OCC(F)(F)F)c(C(F)(F)F)cc2N1 [Example 286] | °C | 201 |
| Cc1cc(-c2cccc(C3=Nc4cc(C(F)(F)F)c(C(F)(F)F)cc4NC(=O)C3)c2)cc(C)n1 [Example 415] | °C | 220 |
| CCOc1cc2c(cc1C(F)(F)F)NC(=O)CC(c1cccc(-c3ccc(C)nc3)c1)=N2 [Example 238] | °C | 210 |
| O=C1CC(c2cccc(-c3ccncc3)c2)=Nc2cc(Cl)c(Cl)cc2N1 [Example 2] | °C | 240 |
| O=C1CC(c2cccc(-c3cnccn3)c2)=Nc2cc(Cl)c(C(F)(F)F)cc2N1 [Example 91] | °C | 235 |
| O=C1CC(c2cccc(-c3ccncc3)c2)=Nc2cc(C(F)(F)F)c(Cl)cc2N1 [Example 100] | °C | 200 |
| CC(C)c1ccc(-c2cccc(C3=Nc4ccc(C(F)(F)F)cc4NC(=O)C3)c2)cn1 [Example 177] | °C | 194 |
| Cc1ccc(-c2cccc(C3=Nc4cc(N(C)C)c(C(F)(F)F)cc4NC(=O)C3)c2)nn1 [Example 15] | °C | 174 |
| Cc1cc(-c2cccc(C3=Nc4cc(N(C)C(C)C)c(C(F)(F)F)cc4NC(=O)C3)c2)ccn1 [Example 363] | °C | 207 |
| O=C1CC(c2cccc(-c3ccnc(CN4CCCC4)c3)c2)=Nc2cc(OCC(F)(F)F)c(C(F)(F)F)cc2N1 [Example 380] | °C | 182 |
| O=C1CC(c2cccc(-c3cnccn3)c2)=Nc2ccc(-n3cccc3)cc2N1 [Example 109] | °C | 214 |
| COCc1cc(-c2cccc(C3=Nc4cc(OCC(F)(F)F)c(C(F)(F)F)cc4NC(=O)C3)c2)ccn1 [Example 400] | °C | 225 |
| Cc1cc2c(cc1C(F)(F)F)NC(=O)CC(c1cccc(-c3ccnc(CN(C)CC(C)C)c3)c1)=N2 [Example 360] | °C | 188 |
| CCOc1cc2c(cc1C(F)(F)F)NC(=O)CC(c1cccc(-c3cccnc3CC)c1)=N2 [Example 235] | °C | 214 |
| Cc1cc2c(cc1C(F)(F)F)NC(=O)CC(c1cccc(-c3ccnc(N4CCCC4)c3)c1)=N2 [Example 389] | °C | 190 |
| CCc1cc(-c2cccc(C3=Nc4cc(Cl)c(Cl)cc4NC(=O)C3)c2)ccn1 [Example 157] | °C | 216 |
| Cc1ccc(-c2cccc(C3=Nc4ccc(Cl)cc4NC(=O)C3)c2)cn1 [Example 31] | °C | 230 |

---

measurement type: melting point (°C)

| record smiles | measurement type | numeric value |
| --- | --- | --- |
| CCc1cc(-c2cccc(C3=Nc4cc(OCC(F)(F)F)c(C(F)(F)F)cc4NC(=O)C3)c2)cc(C)n1 | melting point | 209 |
| Cc1cc(-c2cccc(C3=Nc4cc(F)c(F)cc4NC(=O)C3)c2)cc(C)n1 | melting point | 252 |
| Cc1cc(C2CC2)ncc1-c1cccc(C2=Nc3cc(C)c(C(F)(F)F)cc3NC(=O)C2)c1 | melting point | 195 |
| O=C1CC(c2cccc(-c3cncnc3)c2)=Nc2cc(Cl)c(C(F)(F)F)cc2N1 | melting point | 222 |
| Cc1cc(-c2cccc(C3=Nc4ccc(Cl)cc4NC(=O)C3)c2)cc(C)n1 | melting point | 236 |
| CCc1cc(-c2cccc(C3=Nc4ccc(C(F)(F)F)cc4NC(=O)C3)c2)ccn1 | melting point | 208 |
| O=C1CC(c2cccc(-c3cnccn3)c2)=Nc2cc(C(F)(F)F)c(Cl)cc2N1 | melting point | 214 |
| CCc1cnc(C)cc1-c1cccc(C2=Nc3cc(C)c(C(F)(F)F)cc3NC(=O)C2)c1 | melting point | 182 |
| COc1cc2c(cc1C(F)(F)F)NC(=O)CC(c1cccc(-c3ccccn3)c1)=N2 | melting point | 240 |
| O=C1CC(c2cccc(-c3cccnc3)c2)=Nc2cc(C(F)(F)F)c(Cl)cc2N1 | melting point | 208 |
| Cc1cc2c(cc1C(F)(F)F)NC(=O)CC(c1cccc(-c3ccnc(C4CC4)c3)c1)=N2 | melting point | 232 |
| CCOc1cc2c(cc1C(F)(F)F)NC(=O)CC(c1cccc(-c3ccnc(N4CCCC4)c3)c1)=N2 | melting point | 215 |
| Cc1ccc(-c2cccc(C3=Nc4ccc(C(F)(F)F)cc4NC(=O)C3)c2)nn1 | melting point | 233 |
| Cc1cncc(-c2cccc(C3=Nc4cc(C(F)(F)F)c(C)cc4NC(=O)C3)c2)n1 | melting point | 211 |
| Cc1cc(-c2cccc(C3=Nc4cc(C(F)(F)F)c(C(F)(F)F)cc4NC(=O)C3)c2)ccn1 | melting point | 209 |
| Cc1cc2c(cc1Cl)N=C(c1cccc(-c3cnccn3)c1)CC(=O)N2 | melting point | 218 |
| O=C1CC(c2cccc(-c3ccccn3)c2)=Nc2cc(Cl)c(Cl)cc2N1 | melting point | 239 |
| Cc1nccc(-c2cccc(C3=Nc4cc(Cl)c(Cl)cc4NC(=O)C3)c2)c1C | melting point | 219 |
| Cc1cc2c(cc1Cl)NC(=O)CC(c1cccc(-c3ccnc(C)c3C)c1)=N2 | melting point | 224 |

---

measurement type: melting point (°C)

| record smiles | melting point [°C] |
| --- | --- |
| CC(C)Cc1cc(-c2cccc(C3=Nc4ccc(C(F)(F)F)cc4NC(=O)C3)c2)ccn1 | 181 |
| Cc1cc(-c2cccc(C3=Nc4cc(NCC(C)C)c(Cl)cc4NC(=O)C3)c2)ccn1 | 220 |
| Cc1cc2c(cc1Cl)NC(=O)CC(c1cccc(-c3ccnc(CO)c3)c1)=N2 | 234 |
| Cc1cncc(-c2cccc(C3=Nc4cc(C)c(C(F)(F)F)cc4NC(=O)C3)c2)n1 | 233 |
| Cc1nccc(-c2cccc(C3=Nc4cc(OCC(F)(F)F)c(C(F)(F)F)cc4NC(=O)C3)c2)c1C | 222 |
| Cc1cc2c(cc1Cl)NC(=O)CC(c1cccc(-c3cccnc3)c1)=N2 | 229 |

---

measurement type: melting point (°C)

| compound | unit annotation | melting point |
| --- | --- | --- |
| CCOc1cc2c(cc1C(F)(F)F)NC(=O)CC(c1cccc(-c3ccccn3)c1)=N2 [Example 43] | °C | 229 |
| CC(C)Cc1cc(-c2cccc(C3=Nc4cc(Cl)c(C(F)(F)F)cc4NC(=O)C3)c2)ccn1 [Example 278] | °C | 213 |
